# Assayed system: Adenosine receptors; A1 & A2 (Rattus norvegicus) (UniProt P29276+P25099+P30543)
# Experiment: Selectivity ratio against Adenosine A1 and A2 Receptors, ratio of Ki
# Assay type: protein assay
Entry flag: Fulfilled if Selectivity ratio reaches 1; Not fulfilled if it does not.

Compound | Cat
CCCOC1=Nc2c(ncn2-c2ccccc2)C2=N[C@@H](Cc3ccccc3)CN12 | Not fulfilled
CCCOc1nc(N[C@H](CO)Cc2ccccc2)c2cnn(-c3ccccc3)c2n1 (stereo in doubt; 10a) | Fulfilled
CCCOC1=Nc2c(cnn2-c2ccccc2)C2=N[C@@H](C)[C@H](c3ccccc3)N12 | Fulfilled
CCCOC1=Nc2c(cnn2-c2ccccc2)C2=N[C@H](C)[C@@H](c3ccccc3)N12 | Fulfilled
CCCOc1nc(N[C@H](C)[C@@H](O)c2ccccc2)c2cnn(-c3ccccc3)c2n1 | Not fulfilled
CCCOc1nc(N[C@H](CO)Cc2ccccc2)c2ncn(-c3ccccc3)c2n1 | Fulfilled
CCCOC1=Nc2c(cnn2-c2ccccc2)C2=N[C@H](Cc3ccccc3)CN12 | Fulfilled
CCCOC1=Nc2c(ncn2-c2ccccc2)C2=N[C@H](Cc3ccccc3)CN12 | Fulfilled
CCCOc1nc(N[C@@H](CO)Cc2ccccc2)c2ncn(-c3ccccc3)c2n1 | Fulfilled
CCCOc1nc(N[C@@H](C)[C@H](O)c2ccccc2)c2cnn(-c3ccccc3)c2n1 | Not fulfilled
CCCOC1=Nc2c(cnn2-c2ccccc2)C2=N[C@@H](Cc3ccccc3)CN12 | Not fulfilled
